- procedure.summary: MTT assay, (photo)cytotoxicity toward HEK-293 cells
- Assay type: cell-based
- experimental.parameters: human, HEK-293 cells, ICPrc‐Dox (10 or 50 µM) alone, dark and irradiation, read-out: cell viability
property.label: viability at 4 h

Dear colleague, I am looking for the recorded viability at 4 h of the following compound: [C-]#[N+]CCCOC(=O)NC1CC(OC2CC(O)(C(=O)CO)Cc3c(O)c4c(c(O)c32)C(=O)c2c(OC)cccc2C4=O)OC(C)C1O (stereo not shown) [ICPrc‐Dox, reference compound]
> 98%

* * *

- procedure.summary: MTT assay, (photo)cytotoxicity toward HeLa cells
- Format: cell-based
- experimental.parameters: human, HeLa cells, ICPrc‐Bn (200 µM) alone for 4 h, subsequently irradiated, read-out: cell viability
property.label: viability at 4 h, 200 µM

Dear colleague, I am looking for the recorded viability at 4 h, 200 µM of the following molecule: [C-]#[N+]CCCOC(=O)NCc1ccccc1 [ICPrc‐Bn, 3‐isocyanopropyl benzylcarbamate, reference compound]
> 98%
